target: H3R membranes (H3R8-expressing HEK293 cell line) (Homo sapiens); construct: membranes; assay: [35S]GTPγS binding assay (antagonist inhibition of agonist-stimulated binding); details: inhibition of [35S]GTPγS binding to H3R membranes in presence of agonist R(-) alpha methylhistamine
Sequence (Q9Y5N1 whole entry): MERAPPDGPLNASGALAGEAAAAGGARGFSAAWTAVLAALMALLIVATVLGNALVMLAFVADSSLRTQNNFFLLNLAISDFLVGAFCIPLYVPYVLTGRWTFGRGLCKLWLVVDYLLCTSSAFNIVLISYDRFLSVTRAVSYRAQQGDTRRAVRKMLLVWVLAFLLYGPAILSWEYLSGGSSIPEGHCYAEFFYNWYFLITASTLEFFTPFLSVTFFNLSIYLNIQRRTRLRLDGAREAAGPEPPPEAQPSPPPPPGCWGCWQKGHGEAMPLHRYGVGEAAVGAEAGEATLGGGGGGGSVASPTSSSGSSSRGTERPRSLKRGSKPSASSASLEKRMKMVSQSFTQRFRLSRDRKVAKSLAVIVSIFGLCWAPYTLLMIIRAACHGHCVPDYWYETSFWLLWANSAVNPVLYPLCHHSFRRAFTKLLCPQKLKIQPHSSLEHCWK
parameter: pKi
Note on pKi: it is the negative log10 of concentration, concentration in mol/L.

// pKi (H3R membranes (H3R8-expressing HEK293 cell line) (Homo sapiens)) for CCN(CC)CCCOc1ccc(C(C)N(C)CCN(C)C)cc1 (stereo not shown) = 8.85

###

Overview of recorded Ki for various compounds
biological target: human GPRv53 receptor (H4R) (Homo sapiens, UniProt Q9H3N8); construct: expressed in transfected cells; host or cells: HEK293 GPRv53 50 cells; homogenised whole-cell lysates; test: Competitive binding assay, GPRv53 (H4R), [3H]histamine; details: selectivity study Table 2

compound	Ki
O=C(c1ccc(OCCN2CCCCC2)cc1)N1CCC[C@H]1CN1CCCC1	≥ 20000 nM

So the reported Ki for CCN1CCc2cc(OCCCN3CCCCC3)ccc2C1.Cl.Cl [Example 250, dihydrochloride] , on human GPRv53 receptor (H4R) (Homo sapiens, UniProt Q9H3N8), turned out to be ≥ 20000 nM

###

target: human histamine 3 receptor (H3R) (Homo sapiens, UniProt Q9Y5N1); construct: expressed in transfected cells; membranes; test: Competitive inhibition SPA radioligand binding assay, H3R
Sequence (Q9Y5N1 whole entry): as above
parameter: pKi
Worth noting: pKi values are minus log10 of concentrations stated in mol/L.

Measured pKi of CCN1CCc2cc(OCCCN3CCCCC3)ccc2C1.Cl.Cl [Example 250, dihydrochloride] : 9.43

###

assay: Rat pharmacokinetics, iv and po, LC/MS/MS; format: in vivo, Male Sprague Dawley Rats; conditions: male, Sprague Dawley, blood, 10 mg/kg po, read-out: oral half-life (±SEM) (converted)
parameter: half-life (h)
// note: answer is a bare numeric in h

The recorded half-life for "O=C(c1ccc(OCCN2CCCCC2)cc1)N1CCC[C@H]1CN1CCCC1" is 10.4

###

target: human histamine 1 receptor (H1R) (Homo sapiens, UniProt P35367); construct: expressed in transfected cells; membranes; experiment: Competitive SPA binding assay, H1R, 3H-pyrilamine; details: selectivity study Table 2
Sequence (P35367 whole entry): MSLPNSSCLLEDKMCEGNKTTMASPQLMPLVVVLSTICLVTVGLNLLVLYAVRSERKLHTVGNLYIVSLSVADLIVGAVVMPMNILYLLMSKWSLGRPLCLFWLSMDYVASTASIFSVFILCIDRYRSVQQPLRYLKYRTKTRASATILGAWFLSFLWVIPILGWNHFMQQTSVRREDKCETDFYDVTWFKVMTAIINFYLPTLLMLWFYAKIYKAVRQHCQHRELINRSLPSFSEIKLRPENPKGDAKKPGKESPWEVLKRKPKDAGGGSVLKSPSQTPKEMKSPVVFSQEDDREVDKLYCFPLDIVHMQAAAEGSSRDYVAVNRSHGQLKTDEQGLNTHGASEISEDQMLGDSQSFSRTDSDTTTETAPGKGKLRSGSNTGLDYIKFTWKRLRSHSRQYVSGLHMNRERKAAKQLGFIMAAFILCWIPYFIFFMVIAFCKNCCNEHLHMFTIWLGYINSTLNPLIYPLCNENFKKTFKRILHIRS
parameter: Ki (nM)
Give the value in nM but do not write nM after it.

get_value(item= CCN1CCc2cc(OCCCN3CCCCC3)ccc2C1.Cl.Cl [Example 250, dihydrochloride] , readout=Ki) returns 1020

###

molecular target: human histamine 2 receptor (Homo sapiens, UniProt P25021); construct: expressed in transfected cells; membranes; assay: Competitive SPA binding assay, H2R, 3H-tiotidine; details: selectivity study Table 2, read-out: Ki (nM) H2
Sequence (P25021 whole entry): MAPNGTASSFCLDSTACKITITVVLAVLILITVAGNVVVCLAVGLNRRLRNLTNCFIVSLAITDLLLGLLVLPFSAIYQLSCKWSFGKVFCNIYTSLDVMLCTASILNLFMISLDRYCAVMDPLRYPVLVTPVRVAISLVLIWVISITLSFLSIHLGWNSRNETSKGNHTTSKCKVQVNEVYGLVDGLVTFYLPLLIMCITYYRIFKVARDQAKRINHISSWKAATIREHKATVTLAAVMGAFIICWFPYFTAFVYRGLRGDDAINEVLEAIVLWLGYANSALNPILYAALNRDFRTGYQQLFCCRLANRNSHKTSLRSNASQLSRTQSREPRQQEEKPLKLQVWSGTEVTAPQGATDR
parameter: Ki (nM)
Please state the figure in nM; there is no need to write the unit.

Form field Ki for item CCN1CCc2cc(OCCCN3CCCCC3)ccc2C1.Cl.Cl [Example 250, dihydrochloride] on human histamine 2 receptor (Homo sapiens, UniProt P25021): 1110

###

assay: Rat pharmacokinetics, iv and po, LC/MS/MS; type: in vivo, Male Sprague Dawley Rats; conditions: male, Sprague Dawley, in vivo, 10 mg/kg po, read-out: oral half-life (±SEM) (converted)
parameter: half-life
Returns: string containing the number followed by the unit.

Item: CCN1CCc2ccc(OCCCN3CCCCC3)cc2C1.Cl.Cl [Example 271] | half-life: 71.9 h

###

target: human histamine 3 receptor (H3R) (Homo sapiens, UniProt Q9Y5N1); construct: expressed in transfected cells; membranes; test: Competitive inhibition SPA radioligand binding assay, H3R; settings: competitive binding, selectivity study Table 2; read-out: Ki (nM) H3R
parameter: Ki (nM)
Record the value in nM, omitting the unit from your answer.

The measured Ki associated with "O=C(c1ccc(OCCN2CCCCC2)cc1)N1CCC[C@H]1CN1CCCC1" reads 1.05
